assay: in vitro; assay type: cell-based; settings: human, human epidermal progenitors
Ends that are not written are not given here.

substance	unit of measurement	viability at 72 h, 1000 µM
YRSRKYSSWY [decapeptide-12, YRSRKYSSWY]	%	94
Ac-YRSRKYSSWY-NH2 [P4C, Acetyl-YRSRKYSSWY-amide]	%	96

---

Form field: viability at 72 h, 30 µM (one value per entry).
Experiment: MTT cell proliferation assay, melanoblasts
Assay type: cell-based, human
Details: human, 30 μM, MTT, 72 h, read-out: melanoblast proliferation rate after 72 hours
Protocol: Proliferation rates for three human cell lines (epidermal progenitors, melanoblasts, and fibroblasts) were determined using a TACS® MTT Cell Proliferation Kit. Cells were seeded at 2.5×10^4/well in 96-well plates in a humidified atmosphere with 5 percent CO2 at 37 degrees Celsius. Twenty-four hours later, the decapeptides were added to the corresponding wells at varying concentrations and incubated for 72 hours. The remainder of the procedure was performed following the manufacturer's protocol.
Ends that are not written are not given here.
observed property: viability at 72 h, 30 µM (%)

substance	observed property	recorded number
Ac-YRSRKYSSWY-NH2 [P4C, Acetyl-YRSRKYSSWY-amide]	viability at 72 h, 30 µM	99
YRSRKYSSWY [decapeptide-12, YRSRKYSSWY]	viability at 72 h, 30 µM	99

---

test: Trypan blue cell viability, 7 days, fibroblasts; type: cell-based; conditions: human, 1000 μM, relative to control, read-out: fibroblast viability after 7 days
Ends that are not written are not given here.
Form field: viability at 168 h, 1000 µM (one value per entry).

substance	viability at 168 h, 1000 µM, %
Ac-YRSRKYSSWY-NH2 [P4C, Acetyl-YRSRKYSSWY-amide]	94.9
YRSRKYSSWY [decapeptide-12, YRSRKYSSWY]	93.8

---

assay: MTT cell proliferation assay, melanoblasts; type: cell-based, human; details: human, 500 μM, MTT, 72 h, read-out: melanoblast proliferation rate after 72 hours
Ends that are not written are not given here.
Form field: viability at 72 h, 500 µM (one value per entry).
observed property: viability at 72 h, 500 µM

substance	result
YRSRKYSSWY [decapeptide-12, YRSRKYSSWY]	95%
Ac-YRSRKYSSWY-NH2 [P4C, Acetyl-YRSRKYSSWY-amide]	95%
